Here, each record is paired with measured % inhibition GR (h) data.
Molecular target: GR (h) (Homo sapiens, UniProt P04150)
Construct: CEREP (contract assay)
Sequence (P04150 1-777): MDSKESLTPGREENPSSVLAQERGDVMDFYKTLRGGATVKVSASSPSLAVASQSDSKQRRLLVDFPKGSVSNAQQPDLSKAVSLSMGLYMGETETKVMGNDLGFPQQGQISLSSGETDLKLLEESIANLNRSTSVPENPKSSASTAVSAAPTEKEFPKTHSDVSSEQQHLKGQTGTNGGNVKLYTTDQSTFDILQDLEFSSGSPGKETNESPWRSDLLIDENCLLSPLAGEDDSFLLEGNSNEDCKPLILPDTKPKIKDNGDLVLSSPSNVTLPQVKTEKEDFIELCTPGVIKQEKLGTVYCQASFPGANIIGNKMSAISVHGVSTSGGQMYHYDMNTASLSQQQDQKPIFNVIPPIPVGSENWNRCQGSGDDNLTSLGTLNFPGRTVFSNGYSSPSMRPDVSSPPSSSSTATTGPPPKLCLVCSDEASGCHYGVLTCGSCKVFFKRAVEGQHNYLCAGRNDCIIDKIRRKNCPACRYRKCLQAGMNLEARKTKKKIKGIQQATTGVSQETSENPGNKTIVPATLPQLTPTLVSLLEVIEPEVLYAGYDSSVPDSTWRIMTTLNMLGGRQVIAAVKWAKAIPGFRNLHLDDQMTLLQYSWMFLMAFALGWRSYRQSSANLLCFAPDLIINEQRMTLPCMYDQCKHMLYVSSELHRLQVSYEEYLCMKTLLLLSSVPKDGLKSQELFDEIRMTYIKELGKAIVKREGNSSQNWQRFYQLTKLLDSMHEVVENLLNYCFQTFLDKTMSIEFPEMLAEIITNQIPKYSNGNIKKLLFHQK
Assay: CEREP panel
Assay type: binding
Details: 10 µM

substance.smiles | % inhibition GR (h) / %
Cc1ccc2c(c1)Cc1c(C(=O)NN3CCCCC3)nn(-c3ccc(Cl)cc3Cl)c1-2 | 71
CCCC(C)(C)c1ccc2c(c1)OC(C)(C)[C@@H]1CC=C(C)C[C@@H]21 | 7
CCCCCCC(C)(C)c1cc(OC)c(C2=C[C@H]3CC[C@]2(CO)C3(C)C)c(OC)c1 | 4
Cc1c(C(=O)c2cccc3ccccc23)c2cccc3c2n1[C@H](CN1CCOCC1)CO3 | 63
COc1ccc(C(=O)c2c(C)n(CCN3CCOCC3)c3cc(I)ccc23)cc1 | 38

====

settings: PAMPA

molecule | Pct donor (%)
CN1CCCC[C@H]1Cn1cc(C(=O)c2cc([N+](=O)[O-])ccc2I)c2ccccc21 [(S)-AM1241] | 34
Cc1ccc2c(c1)Cc1c(C(=O)NN3CCCCC3)nn(-c3ccc(Cl)cc3Cl)c1-2 | 29.7
CCCCCCC(C)(C)c1cc(O)c2c(c1)OC(C)(C)[C@@H]1CC=C(CO)C[C@@H]21 | 23
CCCC(C)(C)c1ccc2c(c1)OC(C)(C)[C@@H]1CC=C(C)C[C@@H]21 | 36.1
CCCCCCC(C)(C)c1cc(OC)c([C@@H]2C=C(CO)[C@@H]3C[C@H]2C3(C)C)c(OC)c1 | 23.1
CN1CCCC[C@@H]1Cn1cc(C(=O)c2cc([N+](=O)[O-])ccc2I)c2ccccc21 [(R)-AM1241] | 38.3
Cc1c(C(=O)c2cccc3ccccc23)c2cccc3c2n1[C@H](CN1CCOCC1)CO3 | 50.6
CCCCC/C=C\C/C=C\C/C=C\C/C=C\CCCC(=O)NCCO [Anandamide, N-arachidonoylethanolamine] | 96.3
